test system: OVCAR-3; assay: NCI tumour cell line growth inhibition, 48 h
Calls of active or inactive are those of the source. Rule as the data show it: active = GI50 up to about 1.1 µM and inactive = higher.
# output must be one of true (active), false (inactive)

compound	class_name
O=C1C=C/C(=N\c2ccc3c(c2)C(Br)c2ccccc2-3)O1 (stereo unspecified)	false
CCN1C(=O)/C(=C\Nc2ccccc2)S/C1=N/Nc1ncc(CC(=O)Nc2ccccc2C)s1	false
Cc1coc2c1[C@@H](O)[C@@]1(C)[C@H](CCC[C@@H]1C)C2	false
CCOP(=O)(OCC)Oc1c(OC)c2[nH]c(C(=O)OC)cc2c2c(C(=O)O)c[nH]c12	false

Q) Look up the recorded call for COc1ccc2c([nH]c3cc(O)c(C)cc32)c1C=O in this test.
A) false

Q) Field: outcome | Entry: NNC(=O)C(=O)N/N=C(\CCCC(=O)Nc1ccc(Cl)cc1)CC(=O)c1ccc(F)cc1
A) false

Q) # fetch the recorded call for O=C(CC1C(=O)Nc2ccccc2[S+]1[O-])Nc1cc(Cl)ccc1Cl (stereo unspecified) here
A) false

Q) In this assay, the call recorded for FC(F)(F)c1cccc2ns[s+]c12 was what?
A) false

Q) Name the outcome recorded for Oc1ccc(Cn2c(-c3ccc(O)cc3)nc3ccccc32)cc1 in the assay.
A) false

====

tested on: HCC 2998; assay: NCI tumour cell line growth inhibition, 48 h
Active and inactive are the calls of the source. Rule as the data show it: active = GI50 up to about 1.1 µM and inactive = higher.
Could you please pick one outcome from this set? active, inactive

Solved entries (count: 2):
molecule	class_name
CCCOC(=O)CNC(=O)OC(C)(C)C	inactive
CN(C(=O)C12C3C4C1C1C2C3C41C#N)C(C)(C)C (stereo not drawn)	inactive

Q) What was the test verdict on CCCC(=O)c1ccc2c(ccc(=O)n2C)c1 ?
A) inactive

====

system: A498; assay: NCI tumour cell line growth inhibition, 48 h
Activity calls are given as the source filed them. Rule as the data show it: active = GI50 up to about 1.1 µM and inactive = higher.
Form entry, call: pick from TRUE = active, FALSE = inactive

compound	class_name
COC(=O)C1=C(OC(=O)/C(=C/c2ccccc2)c2ccc([N+](=O)[O-])cc2)C(C(=O)OC)[C@@]2(O)[C@@H](C(=O)OC)[C@H](C)C[C@@H]1[C@@H]2C(=O)OC (some centres not stated)	FALSE

Turning to the following compound.
Q) Answer briefly: the call reported for CC[C@@H]1/C=C/C=C/C[C@H](C)[C@@H](O)[C@](C)(O)C(=O)[C@H](C)[C@@H](O)[C@H](C)C(=O)[C@H](C)[C@@H](O)[C@H](C)/C=C/C(=O)O[C@H]2[C@@H](C)[C@@H](CC1)O[C@]1(O[C@H](CC(C)O)[C@H](C)CC1=O)[C@@H]2C (some centres not stated) in this assay.
A) TRUE

====

tested on: LOX IMVI; experiment: NCI tumour cell line growth inhibition, 48 h
Activity calls are given as the source filed them. No stated cut-off is given here; in the data, active = GI50 up to about 1.1 µM and inactive = higher.
API: response.call in active, inactive

compound	class_name
COC(=O)C1c2cc3c(cc2C(OC2OC(C)C(OC)C(C)(OC)C2OC)CC1(C)O)C(=O)c1c(O)cc2c(c1C3=O)OC1OC2(C)C(O)C([N+](C)(C)[O-])C1O (stereo not drawn)	active

Q) Each compound tested received a call. Report the one for CC(=O)Oc1c(C)c2c(O)c3c1C1=C(OCOC1=C(C)C3=O)/C(C)=C/C(C)(O)C(O)C(C)C(O)C1C(=O)OC(C(C)C1O)C(C)(O)/C=C\C=C(C)C(=O)N2 (stereo not drawn) .
A) inactive

Q) For this compound, state the assay outcome: O=C1c2ccccc2-c2ccc(N(Cc3ccc(Br)cc3)Cc3ccc(Br)cc3)cc21
A) inactive

====

HCT-15: reported GI50 for various compounds.
Form entry: value (µM) — number only.

Example entries begin here.
> print(dat)
                                   molecule  study.target  unit.descriptor  assay.value
1  CN1CCc2c1nc(-c1ccc([N+](=O)[O-])cc1)c1c2N(C)CC1        HCT-15               µM         99.5
2  CCOC(=O)C1(C(=O)OCC)C[C@H]2CON=C2[C@@H]1c1ccc(C(F)(F)F)cc1        HCT-15               µM         38.6

Could you now consider this next compound?
Q) Hi! What's the reported GI50 for [N-]=[N+]=Nc1ccccc1C(=O)N1C(=O)c2ccccc2C(=O)N(C(=O)c2ccccc2N=[N+]=[N-])c2ccccc21 on HCT-15?
A) 54.8

====

system: HT-29; experiment: NCI tumour cell line growth inhibition, 48 h
Calls of active or inactive are those of the source. No stated cut-off is given here; in the data, active = GI50 up to about 1.1 µM and inactive = higher.
# GI50 values compiled below

Answered cases to consult:
compound	measurement_label	assay_value
CC(=O)Oc1c(C)c2c(O)c3c1C1=C(OCOC1=C(C)C3=O)/C(C)=C/C(C)(O)C(O)C(C)C(O)C1C(=O)OC(C(C)C1O)C(C)(O)/C=C\C=C(C)C(=O)N2 (stereo unspecified)	GI50	> 100 µM (inactive)
CC1CCC(=O)NCCCCC(=O)N1 (stereo unspecified)	GI50	> 100 µM (inactive)
COc1ccc(OC)c(/C=C2/C(=O)N/C(=N\C(C)=O)N2C)c1	GI50	> 100 µM (inactive)

Q) Name the reported GI50 value associated with the compound COc1cc(/N=N/c2cccc(S(N)(=O)=O)c2)c2ccccc2c1N
A) 15.2 µM (inactive)

Q) Need GI50 of O=C(CSc1nc2ccc(I)cc2c(=O)n1Cc1ccccc1)Nc1ccc(Br)cc1 , thanks.
A) > 100 µM (inactive)

Q) For the compound shown here, Cc1ccc(S(=O)(=O)NC(=O)Nc2ccc(C(=O)O)c(O)c2)cc1 , give the reported GI50.
A) > 100 µM (inactive)

====

system: LXFL 529; experiment: NCI tumour cell line growth inhibition, 48 h
Active and inactive are the calls of the source. No stated cut-off is given here; in the data, active = GI50 up to about 1.1 µM and inactive = higher.
Answer with one of the outcomes given here: t (active), f (inactive)

molecule	class_name
CCC1(O)CC(c2ccccc2)N(C)C(c2ccccc2)C1 (stereo not drawn)	f
CC(C)(C)c1cc(CCCCCCCC2(CCCCCCCc3cc(C(C)(C)C)cc(C(C)(C)C)c3)OC(COCCOCCCCCC#N)C(COCCOCCCCCC#N)O2)cc(C(C)(C)C)c1 (stereo not drawn)	f
O=C(c1ccncc1)n1nc(-c2ccccc2)c(/N=N/c2ccc([N+](=O)[O-])cc2)c1-c1ccccc1	f

Q) Fill in: this test's call for O=[N+]([O-])c1cc(/C=N\NS(=O)(=O)c2ccc(Cl)cc2)c(O)c([N+](=O)[O-])c1 is ___
A) f

Q) Called result for COc1cc(OC)c2c(=O)cc(-c3ccc(OC)c(OC)c3OC)oc2c1
A) f

Q) Please indicate how the test categorized CN(C(=O)C12C3C4C1C1C2C3C41C#N)C(C)(C)C (stereo not drawn) .
A) f

Q) Per the records of this test, what outcome belongs to CCN(CCCl)CCNc1c2ccccc2nc2ccc(OC)cc12 ?
A) t

Q) Each molecule tested received a call. Report the one for ON/N=C/c1cc2c(cc1Br)OCO2 .
A) f

Q) Could you check what this test reported for CN1CCc2c1nc(-c1ccccc1)c1c2N(C)CC1 ?
A) f

Q) // param item: O=C(c1cc2ccccc2o1)N(Cc1ccccc1)c1ccccc1 ; yields the recorded call
A) f

Q) Short answer needed: outcome of this test for CN1C(c2ccccc2)CC(=NO)CC1c1ccccc1 (stereo not drawn) ?
A) f

Q) How was OCc1ccc2[n+](c1)CCC1c3ccccc3NC21 (stereo not drawn) classified in this test?
A) f

Q) Could you kindly confirm the outcome this assay logged for CC(=O)O/N=C(Cl)/C(Cl)=N/OC(C)=O ?
A) f

====

Below, each of the compounds is paired with its reported GI50 value.
test system: T47D; assay: NCI tumour cell line growth inhibition, 48 h
Calls of active or inactive are those of the source. Rule as the data show it: active = GI50 up to about 1.1 µM and inactive = higher.

Before answering, review these 4 worked examples.
compound	study_target	assay_value
CC(C)(C)C1=C(Br)C(F)(C(C)(C)C)OP1(=O)c1ccccc1 (stereo not given)	T47D	15.9 µM (inactive)
CCn1c(SCC(=O)N/N=C2\SCC(=O)N2c2ccc(C)cc2)nc2ccccc2c1=O	T47D	25.1 µM (inactive)
O=C1NNC2(C(=O)N1)c1ccccc1-c1ccccc12	T47D	2.55 µM (inactive)
CC(C)C1=CC(=O)C(C)(C2C(O)CC3(C)C4CC=C5C(CCC(OC6OC(CO)C(O)C(O)C6OC6OC(C)C(O)C(O)C6O)C5(C)C)C4(C)C(=O)CC23C)O1 (stereo not given)	T47D	> 100 µM (inactive)

In the following, a different compound is considered.
Q) Can you look up the measured GI50 of C1=C2C3=[N+](CCCC3)CC2Cc2ccsc21 (stereo not given) for me?
A) 22.8 µM (inactive)

====

Parameter GI50: see the listing below.
tested on: HT-29; test: NCI tumour cell line growth inhibition, 48 h
The source made the active and inactive calls. No stated cut-off is given here; in the data, active = GI50 up to about 1.1 µM and inactive = higher.

> print(dat)
                                    compound  study.target          assay.value
 1  NC(=O)N/N=C(\Cc1nc2ccc(C(=O)c3ccccc3)cc2nc1O)C(=O)Nc1ccc(Br)cc1         HT-29  > 100 µM (inactive)
 2                  N/C(=N\O)N/N=C\c1ccccc1O         HT-29   4.19 µM (inactive)
 3  C/C1=C\CC[C@@]2(C)O[C@@H]2C[C@@H]2[C@H](C/C(C)=C/CC1)OC(=O)C21CCN=N1 (stereo not given in full)         HT-29   > 75 µM (inactive)
 4  O=c1ccn(C2OC(CN(O)CCC3C(O)C(CO)OC3n3ccc(=O)[nH]c3=O)C(O)C2O)c(=O)[nH]1 (stereo not given)         HT-29  > 100 µM (inactive)
 5  CCCC(=O)OC1CC(n2cc(F)c(=O)[nH]c2=O)OC1CO (stereo not given)         HT-29   1.29 µM (inactive)
 6  C/C(=N\NS(=O)(=O)c1ccc(C)cc1)C(CN(C)C)C(c1ccccc1)c1c(O)c2ccccc2oc1=O (stereo not given)         HT-29  > 100 µM (inactive)
 7  O=C(c1ccc(F)cc1)c1cccc(C(=O)c2ccc(F)cc2)n1         HT-29  > 100 µM (inactive)
 8  O=C(O)CCC(NC(=O)c1ccc(CNc2nc3ccccc3nc2C(=O)O)cc1)C(=O)O (stereo not given)         HT-29  > 100 µM (inactive)
 9  CCCCCCCCC1=CCC(CN(C)C)C1=O (stereo not given)         HT-29   19.4 µM (inactive)
10  Cc1nc2ccccc2c(=O)n1NC(=O)c1ccc([N+](=O)[O-])cc1         HT-29  > 100 µM (inactive)

Q) Requested read-out: GI50. Entry: Cc1cccc(N2CCN(S(=O)(=O)c3ccc(Cl)cc3)C2=N)c1C
A) > 100 µM (inactive)

Q) # input compound: COc1cc(OC)c(/C=C/c2cnc3ccccc3n2)c(OC)c1 ; wanted: its GI50
A) > 10 µM (inactive)

Q) Any idea what GI50 was measured for CN(C)S(=O)(=O)c1nc(Cl)c2nc[nH]c2n1 ?
A) > 100 µM (inactive)

Origin of measurements: ChEMBL document CHEMBL1201862
